# Test system: NCI-H23
# Experiment description: relative viability (nuclei count vs DMSO), 5 days (fraction); higher = more cells survive
# Experimental setup: first compound 0.0002 µM
Provide the reported relative viability of each item.
One number for each entry.

Look over these answered cases.
* CC(=O)O[C@@]12CO[C@@H]1C[C@H](O)[C@@]1(C)C(=O)[C@H](O)C3=C(C)[C@@H](OC(=O)[C@H](O)[C@@H](NC(=O)OC(C)(C)C)c4ccccc4)C[C@@](O)([C@@H](OC(=O)c4ccccc4)[C@H]21)C3(C)C [Docetaxel] + O=C(c1cc(Cc2n[nH]c(=O)c3ccccc23)ccc1F)N1CCN(C(=O)C2CC2)CC1 [Olaparib] (partner 8 µM) | 0.366
* CC(=O)O[C@@]12CO[C@@H]1C[C@H](O)[C@@]1(C)C(=O)[C@H](O)C3=C(C)[C@@H](OC(=O)[C@H](O)[C@@H](NC(=O)OC(C)(C)C)c4ccccc4)C[C@@](O)([C@@H](OC(=O)c4ccccc4)[C@H]21)C3(C)C [Docetaxel] + COc1cc2c(Oc3ccc(NC(=O)C4(C(=O)Nc5ccc(F)cc5)CC4)cc3F)ccnc2cc1OCCCN1CCOCC1 [Foretinib] (partner 0.25 µM) | 0.964
* CC(=O)O[C@@]12CO[C@@H]1C[C@H](O)[C@@]1(C)C(=O)[C@H](O)C3=C(C)[C@@H](OC(=O)[C@H](O)[C@@H](NC(=O)OC(C)(C)C)c4ccccc4)C[C@@](O)([C@@H](OC(=O)c4ccccc4)[C@H]21)C3(C)C [Docetaxel] + CC(C)C[C@H](NC(=O)[C@H](Cc1ccccc1)NC(=O)c1cnccn1)B(O)O [Bortezomib] (partner 0.002 µM) | 1.08
* CC(=O)O[C@@]12CO[C@@H]1C[C@H](O)[C@@]1(C)C(=O)[C@H](O)C3=C(C)[C@@H](OC(=O)[C@H](O)[C@@H](NC(=O)OC(C)(C)C)c4ccccc4)C[C@@](O)([C@@H](OC(=O)c4ccccc4)[C@H]21)C3(C)C [Docetaxel] + CS(=O)(=O)CCNCc1ccc(-c2ccc3ncnc(Nc4ccc(OCc5cccc(F)c5)c(Cl)c4)c3c2)o1 [Lapatinib] (partner 2 µM) | 0.963
* CC(=O)O[C@@]12CO[C@@H]1C[C@H](O)[C@@]1(C)C(=O)[C@H](O)C3=C(C)[C@@H](OC(=O)[C@H](O)[C@@H](NC(=O)OC(C)(C)C)c4ccccc4)C[C@@](O)([C@@H](OC(=O)c4ccccc4)[C@H]21)C3(C)C [Docetaxel] + N=C(N)NC(=N)NCCc1ccccc1 [Phenformin] (partner 250 µM) | 0.801
* CC(=O)O[C@@]12CO[C@@H]1C[C@H](O)[C@@]1(C)C(=O)[C@H](O)C3=C(C)[C@@H](OC(=O)[C@H](O)[C@@H](NC(=O)OC(C)(C)C)c4ccccc4)C[C@@](O)([C@@H](OC(=O)c4ccccc4)[C@H]21)C3(C)C [Docetaxel] + CS(=O)(=O)N1CCN(Cc2cc3nc(-c4cccc5[nH]ncc45)nc(N4CCOCC4)c3s2)CC1 [Pictilisib] (partner 1 µM) | 0.499

Now take the following molecule into account.
response.value for CC(=O)O[C@@]12CO[C@@H]1C[C@H](O)[C@@]1(C)C(=O)[C@H](O)C3=C(C)[C@@H](OC(=O)[C@H](O)[C@@H](NC(=O)OC(C)(C)C)c4ccccc4)C[C@@](O)([C@@H](OC(=O)c4ccccc4)[C@H]21)C3(C)C [Docetaxel] + C[C@]1(O)C[C@@H](c2nc(-c3ccc4ccc(-c5ccccc5)nc4c3)c3c(N)nccn32)C1 [Linsitinib] (partner 1 µM) (field: relative viability) = 0.579
